Quick reference for PPAR-α activity among some compounds
Target or test system: PPAR-α (Peroxisome Proliferator Activated Receptor-alpha) (Homo sapiens)
Construct: expressed in transfected cells; host or cells: CV-1 monkey kidney epithelial cells (ATCC CCL 70)
Assay protocol: Activation of PPAR-α, luciferase reporter in CV-1 cells
Type: cell-based
Condition: 100 μM, 24 hours; negative control and non-treated group = 1.0
// no unit, no text: just the number

Q: Given the compound O=c1c(O)c(-c2ccc(O)c(O)c2)oc2cc(O)cc(O)c12 , what is its reported PPAR-α activity?
A: 2.3

Q: # repeat for Oc1cc(O)c2c(c1)O[C@@H](c1ccc(O)c(O)c1)[C@@H](O)C2 [(+) EC, (+)epicatechin]
A: 1.2

Q: # repeat for O=C(O[C@@H]1Cc2c(O)cc(O)cc2O[C@@H]1c1cc(O)c(O)c(O)c1)c1cc(O)c(O)c(O)c1 [EGCG, epigallocatechin gallate]
A: 1.5

Q: # repeat for O=c1c(O)c(-c2cc(O)c(O)c(O)c2)oc2cc(O)cc(O)c12
A: 1.6

Q: # repeat for Oc1cc(O)c2c(c1)O[C@H](c1ccc(O)c(O)c1)[C@H](O)C2 [(−) EC, (−)epicatechin]
A: 1.2

====

Target or test system: PPAR-α (Peroxisome Proliferator Activated Receptor-alpha) (Homo sapiens, UniProt Q07869)
Construct: expressed in transfected cells; host or cells: CV-1 monkey kidney epithelial cells (ATCC CCL 70)
Sequence (Q07869 whole entry, species assumed): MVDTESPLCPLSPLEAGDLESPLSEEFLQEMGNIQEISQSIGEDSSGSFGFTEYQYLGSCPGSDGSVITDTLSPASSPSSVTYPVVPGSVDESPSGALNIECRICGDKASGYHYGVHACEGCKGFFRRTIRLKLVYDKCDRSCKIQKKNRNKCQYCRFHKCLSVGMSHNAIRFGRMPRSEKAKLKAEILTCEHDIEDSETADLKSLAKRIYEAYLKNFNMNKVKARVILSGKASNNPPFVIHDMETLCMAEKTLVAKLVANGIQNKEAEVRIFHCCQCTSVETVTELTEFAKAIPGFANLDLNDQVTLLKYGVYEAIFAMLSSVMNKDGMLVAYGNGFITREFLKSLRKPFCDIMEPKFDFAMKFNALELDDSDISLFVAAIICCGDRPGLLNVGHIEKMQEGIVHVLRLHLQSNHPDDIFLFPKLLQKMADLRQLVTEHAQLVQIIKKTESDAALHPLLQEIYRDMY
Assay protocol: Activation of PPAR-α, luciferase reporter in CV-1 cells
Format: cell-based
Condition: 100 μM, 24 hours; negative control and non-treated group = 1.0
Decide using PPAR-α activity alone. Strictly below 2: MET. Equal to or above 2: NOT MET.

Past entries and their recorded results:
Compound: O=C(O[C@@H]1Cc2c(O)cc(O)cc2O[C@H]1c1cc(O)c(O)c(O)c1)c1cc(O)c(O)c(O)c1 [GCG, gallocatechin gallate]
Class: NOT MET
//
Compound: CCNC(=O)CC[C@H](N)C(=O)O [Theanine]
Class: MET
//
Compound: O=C(O[C@@H]1Cc2c(O)cc(O)cc2O[C@@H]1c1ccc(O)c(O)c1)c1cc(O)c(O)c(O)c1 [(−) ECG, epicatechin gallate]
Class: MET
//
Compound: O=C(O[C@@H]1Cc2c(O)cc(O)cc2O[C@H]1c1ccc(O)c(O)c1)c1cc(O)c(O)c(O)c1 [CG, catechin gallate]
Class: MET
//
Compound: O=C(O)c1cc(O)c(O)c(O)c1 [Gallic acid]
Class: MET
//
Compound: Oc1cc(O)c2c(c1)O[C@H](c1cc(O)c(O)c(O)c1)[C@@H](O)C2 [(−) GC, gallocatechin]
Class: MET

Q: Quick check: PPAR-α activity of O=C(O)[C@]1(O)C[C@@H](O)[C@@H](O)[C@H](O)C1 [Quinic acid] under 2?
A: MET

Q: # repeat for Oc1cc(O)c2c(c1)OC(c1ccc(O)c(O)c1)C(O)C2 (single isomer, unassigned; (-)) [(−) C, (−)catechin]
A: MET

Q: # repeat for Cn1cnc2c1c(=O)[nH]c(=O)n2C [Theobromine]
A: NOT MET

Q: # repeat for Cn1c(=O)c2[nH]cnc2n(C)c1=O [Theophylline, reference compound]
A: MET

Q: # repeat for Oc1cc(O)c2c(c1)O[C@H](c1cc(O)c(O)c(O)c1)[C@H](O)C2 [(−) EGC, epigallocatechin]
A: MET
